Origin of measurements: patent US20210277110A1

Can you tell me koff for the items I'm about to list?
molecular target: T1, Extracellular domain of human PD1 (huPD1-ECD) (human, UniProt Q15116 25-169, biotinylated in the ligand inhibition assay (sites not given)); experiment: SPR ProteOn, captured mAb, huPD1-ECD analyte
T1 construct: Expressed with a hexahistidine tag or as Fc fusion; also called biotinylated PD-1
T1 sequence (Q15116 25-169 limits assumed): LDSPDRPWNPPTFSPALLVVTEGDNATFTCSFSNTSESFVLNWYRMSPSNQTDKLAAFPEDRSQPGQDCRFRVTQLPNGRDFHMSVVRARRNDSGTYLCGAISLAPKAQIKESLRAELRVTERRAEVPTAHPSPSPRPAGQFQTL
Reply numerically in s⁻¹, unit not repeated.

Input: Entry PD1B164 (antibody, human IgG2, kappa, V domains shown, IgG2sigma/kappa; VH 42, VL 53; also called PD1H131/PD1L71) VH: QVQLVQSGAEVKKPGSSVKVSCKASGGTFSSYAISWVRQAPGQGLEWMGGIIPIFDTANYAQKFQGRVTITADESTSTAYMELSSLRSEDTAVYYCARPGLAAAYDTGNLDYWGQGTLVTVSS VL: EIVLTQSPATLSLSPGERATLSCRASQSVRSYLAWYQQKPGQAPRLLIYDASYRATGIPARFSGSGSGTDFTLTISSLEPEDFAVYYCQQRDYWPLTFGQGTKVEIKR has what koff?
Output: 0.00131

Input: Entry PD1B70 (antibody, V domains shown, Tested as IgG2sigma/kappa; also called PD1H107/PH9L3) VH: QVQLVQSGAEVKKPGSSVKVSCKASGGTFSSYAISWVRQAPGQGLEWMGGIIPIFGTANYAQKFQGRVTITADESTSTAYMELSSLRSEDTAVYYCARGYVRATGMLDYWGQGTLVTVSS VL: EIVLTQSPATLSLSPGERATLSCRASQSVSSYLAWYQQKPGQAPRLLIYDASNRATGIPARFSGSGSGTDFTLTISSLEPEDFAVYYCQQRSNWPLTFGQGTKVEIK has what koff?
Output: 0.0418

Input: Entry PD1B185 (antibody, human IgG2, kappa, V domains shown, IgG2sigma/kappa; VH 43, VL 55; also called PD1H3/PD1L132) VH: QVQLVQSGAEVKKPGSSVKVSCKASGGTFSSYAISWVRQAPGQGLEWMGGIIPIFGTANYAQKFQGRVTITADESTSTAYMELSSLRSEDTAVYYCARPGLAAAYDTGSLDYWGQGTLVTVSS VL: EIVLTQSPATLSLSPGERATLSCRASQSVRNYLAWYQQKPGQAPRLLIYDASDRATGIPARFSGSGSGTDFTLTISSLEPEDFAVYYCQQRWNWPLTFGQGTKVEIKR has what koff?
Output: 0.00765
